B1: WDR41 (parent)
chain: HVGELIIWDALDWTMQAYERNFWD

Variants of: B1
Protocol Summary: protein stability index of a GFP-peptide fusion (GPS, HEK-293T) (PSI 1-6); higher = more stable;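 further: lentivirally expressed fusions sorted by FACS into six bins by GFP to DsRed ratio, PSI derived from sequencing read proportions per bin multiplied by bin number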
Conditions: c terminus: a fixed tail appended
# binarize protein stability index: threshold 2 inclusive, high side True, low side False

[ask] Could you verify whether the entry YVGELIIWDALDWTMQAYERNFWD [H1Y] shows protein stability index of no less than 2?
[reply] True

[ask] Could you verify whether the entry HVGELIIWDALDWTMQAYERTFWD [N21T] shows protein stability index of no less than 2?
[reply] True
